Documented IC50 across a set of compounds
- TESTED ON: P-selectin (Homo sapiens, UniProt P16109)
- Construct: P-selectin is isolated from human platelet lysates; from tissue; host or cells: human platelets (outdated platelet packs from a blood bank)
- Sequence (P16109 42-830): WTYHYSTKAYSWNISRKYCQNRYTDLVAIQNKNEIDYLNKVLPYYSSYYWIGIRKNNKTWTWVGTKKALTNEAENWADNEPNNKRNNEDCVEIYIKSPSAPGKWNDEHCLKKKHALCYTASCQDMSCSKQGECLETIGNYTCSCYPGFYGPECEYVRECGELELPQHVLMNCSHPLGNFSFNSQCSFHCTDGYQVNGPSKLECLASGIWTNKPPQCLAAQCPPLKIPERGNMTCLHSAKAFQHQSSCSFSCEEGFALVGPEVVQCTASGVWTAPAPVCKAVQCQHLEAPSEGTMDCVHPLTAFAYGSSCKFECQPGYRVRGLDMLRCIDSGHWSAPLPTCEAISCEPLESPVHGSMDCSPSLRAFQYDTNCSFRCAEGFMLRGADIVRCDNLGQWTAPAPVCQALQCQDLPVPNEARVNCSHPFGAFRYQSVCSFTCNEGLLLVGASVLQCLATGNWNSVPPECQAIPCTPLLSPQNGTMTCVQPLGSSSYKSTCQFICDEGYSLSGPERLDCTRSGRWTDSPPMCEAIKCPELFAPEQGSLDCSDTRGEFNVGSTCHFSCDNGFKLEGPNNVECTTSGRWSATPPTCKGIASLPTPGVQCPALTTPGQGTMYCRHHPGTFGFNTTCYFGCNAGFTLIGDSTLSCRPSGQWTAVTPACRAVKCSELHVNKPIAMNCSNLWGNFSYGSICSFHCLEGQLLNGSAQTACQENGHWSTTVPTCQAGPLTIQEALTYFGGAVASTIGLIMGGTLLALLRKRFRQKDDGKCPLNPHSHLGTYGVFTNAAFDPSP
- TEST DESCRIPTION: Inhibition of human neutrophil adhesion to purified P-selectin immobilized on plastic wells
- Assay type: cell-based
- MEASUREMENT CONDITIONS: inhibiting the binding of human neutrophils to P-selectin
Where a SMILES comes first, the peptide text is derived from it. Bridges are numbered along the chain shown (N, C = ends). [ ]: non-standard residue; d: D form. d2Nal = N[C@H](Cc1ccc2ccccc2c1)C(=O)O; dPen = CC(C)(S)[C@@H](N)C(=O)O; Dap = NC[C@H](N)C(=O)O
# unit: µM | format: bare number

# example entries with known answers
compound="CC(=O)NCCCC[C@@H](NC(=O)[C@H]1CSC[C@@H](NC(=O)[C@@H](CCCCN)NC(=O)[C@H](N)CCCNC(=N)N)C(=O)NCC(=O)N[C@@H](Cc2ccccc2)C(=O)N1)C(=O)N[C@@H](C(=O)N[C@H](Cc1c[nH]c2ccccc12)C(=O)N[C@@H](C(N)=O)C(C)C)[C@H](C)O [(50)]" observable=IC50 recorded_measurement=19.5
compound="CC(C)[C@@H](NC(=O)[C@@H](Cc1c[nH]c2ccccc12)NC(=O)[C@H](NC(=O)[C@@H](Cc1c[nH]c2ccccc12)NC(=O)[C@H]1CSSC[C@@H](NC(=O)[C@@H](CCCCN)NC(=O)[C@H](N)CCCNC(=N)N)C(=O)N[C@@H](CCCNC(=N)N)C(=O)N[C@@H](Cc2ccccc2)C(=O)N1)[C@H](C)O)C(N)=O [(39)] (H-[dR][dK][dC]RF[dC][dW][dT][dW][dV]-NH2; disulfide 3-6)" observable=IC50 recorded_measurement=30.6
compound="CC(C)[C@@H](NC(=O)[C@@H](Cc1c[nH]c2ccccc12)NC(=O)[C@H]1CCC(=O)NCCCC[C@@H](NC(=O)[C@H](N)CCCNC(=N)N)C(=O)N[C@@H]2CSSC[C@@H](NC(=O)[C@H](Cc3ccccc3)NC(=O)CNC2=O)C(=O)N[C@H](Cc2c[nH]c3ccccc23)C(=O)N1)C(N)=O [(106)] (H-[dR][dK][dC]GF[dC][dW][dE][dW][dV]-NH2; lactam 2-8; disulfide 3-6; N-terminus assumed)" observable=IC50 recorded_measurement=8
compound="CC(C)[C@@H](NC(=O)[C@@H](Cc1c[nH]c2ccccc12)NC(=O)[C@H](NC(=O)[C@@H](Cc1ccc2ccccc2c1)NC(=O)[C@H]1CSSC[C@@H](NC(=O)[C@@H](CCCCN)NC(=O)[C@H](N)CCCNC(=N)N)C(=O)NCC(=O)N[C@@H](Cc2ccccc2)C(=O)N1)[C@H](C)O)C(N)=O [(51)] (H-[dR][dK][dC]GF[dC][d2Nal][dT][dW][dV]-NH2; disulfide 3-6)" observable=IC50 recorded_measurement=7.7
compound="CC(C)[C@H](NC(=O)[C@H](Cc1c[nH]c2ccccc12)NC(=O)[C@@H](NC(=O)[C@H](Cc1c[nH]c2ccccc12)NC(=O)[C@@H]1CC(=O)NC[C@H](NC(=O)[C@H](CCCCN)NC(=O)[C@@H](N)CCCNC(=N)N)C(=O)NCC(=O)NCC(=O)N1)[C@@H](C)O)C(N)=O [(22)] (H-RK[Dap]GGDWTWV-NH2; lactam 3-6)" observable=IC50 recorded_measurement=13
compound="CC(C)[C@H](NC(=O)[C@H](Cc1c[nH]c2ccccc12)NC(=O)[C@@H](NC(=O)[C@H](Cc1c[nH]c2ccccc12)NC(=O)[C@@H]1CSSC(C)(C)[C@@H](NC(=O)[C@H](CCCCN)NC(=O)[C@@H](N)CCCNC(=N)N)C(=O)NCC(=O)NCC(=O)N1)[C@@H](C)O)C(N)=O [(23)] (H-RK[dPen]GGCWTWV-NH2; disulfide 3-6)" observable=IC50 recorded_measurement=36

Read the next record carefully.
Query: So what IC50 did CC[C@@H](C)[C@H]1NC(=O)[C@H](NC(=O)[C@@H](CCCCN)NC(=O)[C@H](N)CCCNC(=N)N)CSSC[C@H](C(=O)N[C@H](Cc2c[nH]c3ccccc23)C(=O)N[C@@H](C(=O)N[C@H](Cc2c[nH]c3ccccc23)C(=O)N[C@@H](C(N)=O)C(C)C)[C@H](C)O)NC(=O)[C@H]([C@@H](C)CC)NC1=O [(92)] (H-[dR][dK][dC][dI]I[dC][dW][dT][dW][dV]-NH2; disulfide 3-6) get with P-selectin (Homo sapiens, UniProt P16109)?
Response: 2.4
